For each record, write down the corresponding LC50.
Tested on: Biomphalaria peregrina
Assay: Molluscicidal activity against Biomphalaria peregrina after 24 hrs
Format: functional
Details: Biomphalaria peregrina, 24 h; read-out: LD50 (the source's name)

Field: LC50 (Biomphalaria peregrina). Entry: CC/C=C(\OC(C)=O)C1=C(OC(C)=O)C(C)(CC=C(C)C)C(OC(C)=O)=C(Cc2c(OC)cc(OC(C)=O)c(C(=O)CCC)c2OC(C)=O)C1=O (centres undefined)
14.9 µM

Another compound to check: CCCC(=O)C1=C(O)C(C)(CC=C(C)C)C(O)=C(Cc2c(OC)cc(O)c(C(=O)CCC)c2O)C1=O (centres undefined)
5.8 µM

Next record, please: CCCCCC(=O)c1c(O)cc(OC)c(CC2=C(O)C(C)(CC=C(C)C)C(O)=C(C(=O)CCC)C2=O)c1O (centres undefined)
1.8 µM

And for CC/C=C(\OC(C)=O)C1=C(OC(C)=O)C(C)(CC=C(C)C)C(OC(C)=O)=C(Cc2c(OC)cc(OC(C)=O)c(C(=O)CCCCC)c2OC(C)=O)C1=O (centres undefined) ?
40.6 µM
